The values you see were collected from patent US10364226B2.

The reader will find pIC50 measurements below, all made with EN PA (Influenza A virus).
pIC50: −log10 of the molar value.

>  <COMPOUND>
O=C(O)c1nn(-c2ccccc2-c2ccccc2OC2CCCC2)cc(O)c1=O [Compound 319]

>  <pIC50>
6.00 to 7.00

$$$$

Lookup: Quick check: pIC50 on EN PA (Influenza A virus), item CNC(=O)c1nn(CCN(c2ccccc2)c2ccccc2)cc(O)c1=O [Compound 834] ?
Found: 6.00 to 7.00

Lookup: Entry CNC(=O)c1nn(CC2(n3cc(C)c4cccnc43)CCCC2)cc(OC(C)=O)c1=O [Compound 662] , system EN PA (Influenza A virus): what pIC50 was measured?
Found: > 7.00

Lookup: // map O=C(O)c1nn(CCCc2ccccc2)cc(O)c1=O [Compound 402] to recorded pIC50 (system: EN PA (Influenza A virus))
Found: 6.00 to 7.00

Lookup: Find the measured pIC50: item CNC(=O)c1nn(CC(c2ccccc2)c2ccccc2)cc(O)c1=O [Compound 660] , target or system EN PA (Influenza A virus).
Found: 6.00 to 7.00

Lookup: # returns recorded pIC50 (system: EN PA (Influenza A virus)) for O=C(c1nn(CC2(c3cccc(C(F)(F)F)c3)CCCC2)cc(O)c1=O)N1CCC(F)(F)C1 [Compound 502]
Found: ≤ 6.00

Lookup: Please provide the recorded pIC50 for CNC(=O)c1nn(CC2(n3cc(C)c4cccnc43)CCCC2)cc(OC(=O)N(C)C)c1=O [Compound 765] , tested on EN PA (Influenza A virus).
Found: ≤ 6.00

Lookup: Which pIC50 is reported with EN PA (Influenza A virus) for this entry: CNC(=O)c1nn(CC2(n3cc(-c4ccccc4)c4cccnc43)CCCC2)cc(O)c1=O [Compound 742] ?
Found: > 7.00

Lookup: Enter reported pIC50 observed with EN PA (Influenza A virus) for O=C(NCC(F)(F)F)c1nn(CC2(c3cccc(C(F)(F)F)c3)CCCC2)cc(O)c1=O [Compound 505]
Found: 6.00 to 7.00

Lookup: Value wanted: pIC50 (EN PA (Influenza A virus)) of entry O=C(NCc1ccc(Cl)cc1)c1nn(CC2(c3cccc(C(F)(F)F)c3)CCCC2)cc(O)c1=O [Compound 523]
Found: 6.00 to 7.00

Lookup: Tell me reported pIC50 for CNC(=O)c1nn(CCn2c3ccccc3c3ccccc32)cc(O)c1=O [Compound 835] , tested with EN PA (Influenza A virus).
Found: 6.00 to 7.00

Lookup: Form field - read-out: pIC50; system: EN PA (Influenza A virus); submitted item: O=C(O)c1nn(-c2ccccc2N2CCCC2Cc2ccccc2)cc(O)c1=O (centres unmarked) [Compound 203]
Found: 6.00 to 7.00

---

pIC50: −log10 of the molar value.
Quick record of pIC50 values for EN PA (Influenza A virus, UniProt P15659).

>  <COMPOUND SMILES>
CNC(=O)c1nn(CC2(n3cc(Br)c4cccnc43)CCCC2)cc(O)c1=O

>  <RESULT>
> 7.00

$$$$
>  <COMPOUND SMILES>
O=C(O)c1nn(-c2ccccc2-c2ccccc2OC2CCCCC2)cc(O)c1=O

>  <RESULT>
> 7.00

$$$$
>  <COMPOUND SMILES>
CNC(=O)c1nn(CC2(c3cccc(C(F)(F)F)c3)CCCC2)cc(O)c1=O

>  <RESULT>
6.00 to 7.00

$$$$
>  <COMPOUND SMILES>
O=C(NCc1cnn(-c2ccc(F)cc2)c1)c1nn(CC2(c3cccc(C(F)(F)F)c3)CCCC2)cc(O)c1=O

>  <RESULT>
> 7.00

$$$$
>  <COMPOUND SMILES>
O=C(NCc1ccc(F)c(Cl)c1)c1nn(CC2(c3ccncc3)CCCC2)cc(O)c1=O

>  <RESULT>
> 7.00

$$$$

Lookup: Form field - read-out: pIC50; system: EN PA (Influenza A virus, UniProt P15659); submitted item: `CNC(=O)c1nn(-c2ccccc2-c2ccc(CC(C)C)cc2)cc(O)c1=O`
Found: ≤ 6.00

Lookup: Field: pIC50 (EN PA (Influenza A virus, UniProt P15659)). Entry: `CNC(=O)c1nn(CC2(n3c4ccccc4c4ccccc43)CCCC2)cc(O)c1=O`
Found: > 7.00

Lookup: Give the reported pIC50 for `CC(C)(C)OC(=O)N1CCC(c2ccccc2-n2cc(O)c(=O)c(C(=O)O)n2)CC1` (system: EN PA (Influenza A virus, UniProt P15659)).
Found: ≤ 6.00

---

The molecules below have reported IC50 for EN PA (Influenza A virus, UniProt P15659).

>  <MOLECULE>
CNC(=O)c1nn(CC2(n3ccc4cc(Cl)cnc43)CCCC2)cc(O)c1=O [Compound 818]

>  <IC50>
< 100 nM

$$$$
>  <MOLECULE>
O=C(O)c1nn(-c2ccc3cn[nH]c3c2)cc(O)c1=O [Compound 33]

>  <IC50>
100 to 1000 nM

$$$$
>  <MOLECULE>
Cc1cn(C2(Cn3cc(O)c(=O)c(C(=O)O)n3)CCCC2)c2ncccc12 [Compound 425]

>  <IC50>
100 to 1000 nM

$$$$

Lookup: Report IC50 for CC(C)c1ccccc1-n1cc(O)c(=O)c(C(=O)O)n1 [Compound 8] tested on EN PA (Influenza A virus, UniProt P15659).
Found: ≥ 1000 nM

Lookup: What measured IC50 is associated with CNC(=O)c1nn(CC2(c3cccc4[nH]ncc34)CCCC2)cc(O)c1=O [Compound 871] on EN PA (Influenza A virus, UniProt P15659)?
Found: < 100 nM

Lookup: Recorded IC50 for CCN1CCN(c2ccccc2-n2cc(O)c(=O)c(C(=O)NC)n2)CC1 [Compound 615] with EN PA (Influenza A virus, UniProt P15659), please?
Found: ≥ 1000 nM

---

Target: EN PA (Influenza A virus)
pIC50: −log10 of the molar value.
As shown below, each of these compounds has a reported pIC50 value.

Below: 3 compounds and their reported pIC50.
>  <COMPOUND>
Cc1cn(C2(Cn3cc(O)c(=O)c(C(=O)NCC4(CO)CCCC4)n3)CCCC2)c2ncccc12 [Compound 822]

>  <pIC50>
> 7.00

$$$$
>  <COMPOUND>
C#Cc1cn(C2(Cn3cc(O)c(=O)c(C(=O)NC)n3)CCCC2)c2ncc(C)cc12 [Compound 875]

>  <pIC50>
> 7.00

$$$$
>  <COMPOUND>
O=C(O)c1nn(-c2ccccc2C2CCNCC2)cc(O)c1=O [Compound 312]

>  <pIC50>
≤ 6.00

$$$$

Lookup: Using the record for O=C(NCC1CC1)c1nn(CC2(n3cc(Cl)c4cccnc43)CCCC2)cc(O)c1=O [Compound 760] , report its pIC50.
Found: > 7.00

---

Each entry below carries its measured pIC50, system: EN PA (Influenza A virus, UniProt P15659).
pIC50: −log10 of the molar value.

>  <COMPOUND SMILES>
NC(=O)c1nn(CC2(n3cc(Cl)c4cccnc43)CCCC2)cc(O)c1=O

>  <pIC50>
> 7.00

$$$$

Lookup: Would you mind telling me what pIC50 value was observed for `COc1cc(OC)cc(-n2cc(O)c(=O)c(C(=O)O)n2)c1` ?
Found: 6.00 to 7.00

Lookup: Endpoint output: pIC50 of `O=C(O)c1nn(-c2ccccc2N2CCCCC2)cc(O)c1=O` . Value?
Found: 6.00 to 7.00

Lookup: State the recorded pIC50 for this entry: `CNC(=O)c1nn(CC2(N3c4ccccc4C=Cc4ccccc43)CCCC2)cc(O)c1=O`
Found: > 7.00

Lookup: Bench note: what pIC50 did `CNC(=O)c1nn(CC2(n3cc(C)c4cccnc43)CCCC2)cc(OC(=O)OCC(C)C)c1=O` show?
Found: > 7.00

Lookup: Return reported pIC50; argument: `O=C(O)c1nn(CC2(c3cc(C(F)(F)F)cc(C(F)(F)F)c3)CCCC2)cc(O)c1=O`
Found: > 7.00

Lookup: Using the record for `CC(C)(CO)NC(=O)c1nn(CC2(n3cc(Cl)c4cccnc43)CCCC2)cc(O)c1=O` , report its pIC50.
Found: > 7.00

Lookup: Look at this molecule and give its reported pIC50. `O=C(Nc1ccc(Cl)cc1)c1nn(CC2(c3ccccc3)CCCC2)cc(O)c1=O`
Found: > 7.00

---

Target: UniProt P15659
pIC50: −log10 of the molar value.
Catalogue of pIC50 values

Here's what some known entries look like.
>  <COMPOUND>
O=C(NCc1ccccc1)c1nn(-c2ccccc2S(=O)(=O)c2ccccc2)cc(O)c1=O [Compound 605]

>  <pIC50>
6.00 to 7.00

$$$$
>  <COMPOUND>
CNC(=O)c1nn(CC2(c3cn(C)c4ccccc34)CCCC2)cc(O)c1=O [Compound 830]

>  <pIC50>
6.00 to 7.00

$$$$
>  <COMPOUND>
CNC(=O)c1nn(CC2(n3cc(C)c4cccnc43)CCCC2)cc(OCc2ccccc2)c1=O [Compound 852]

>  <pIC50>
≤ 6.00

$$$$
>  <COMPOUND>
O=C1NCC/C=C/Cc2ccc3c(C(=O)C(F)(F)F)cn(c3c2)C2(CCCC2)Cn2cc(O)c(=O)c1n2 [Compound 836]

>  <pIC50>
≤ 6.00

$$$$
>  <COMPOUND>
CC(C)(C)c1ccccc1-n1cc(O)c(=O)c(C(=O)O)n1 [Compound 16]

>  <pIC50>
6.00 to 7.00

$$$$
>  <COMPOUND>
COc1ccc(CCn2cc(O)c(=O)c(C(=O)O)n2)cc1OC [Compound 417]

>  <pIC50>
6.00 to 7.00

$$$$
>  <COMPOUND>
O=C(O)c1nn(-c2ccc(Oc3ccccc3)cc2)cc(O)c1=O [Compound 43]

>  <pIC50>
6.00 to 7.00

$$$$
>  <COMPOUND>
CCC(=O)c1nn(CC2(n3cc(C)c4cccnc43)CCCC2)cc(O)c1=O [Compound 827]

>  <pIC50>
> 7.00

$$$$

Lookup: Name the reported pIC50 value associated with the compound Cc1cc(C)cc(-c2ccccc2-n2cc(O)c(=O)c(C(=O)O)n2)c1 [Compound 301]
Found: 6.00 to 7.00

Lookup: // lookup pIC50 for CCCCNS(=O)(=O)c1cccc(-n2cc(O)c(=O)c(C(=O)O)n2)c1 [Compound 22]
Found: 6.00 to 7.00

Lookup: GET /values?readout=pIC50&item= CNC(=O)c1nn(CC2(c3cc4ccccc4cc3Cl)CCCC2)cc(O)c1=O [Compound 893]
Found: > 7.00
